Entries and their phosphorylation enrichment values follow.
system: c-Src; assay: phosphorylation enrichment, bacterial display (enrichment ratio); higher = better substrate or ligand; peptides without Tyr show the background;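 also: 11-residue human phosphosite peptides and single-mutation variants displayed on the E. coli surface, counted by deep sequencing, each peptide's frequency after selection divided by its frequency in the unselected input library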;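 also: frequency after pTyr selection over input frequency; kinase dosed for 20-30% of maximal phosphorylation in three min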
Simply state the number, no unit and no words.

RECORD_SEQUENCE: EPSVDYCVVKI [CAD_Y735]
MEAS_VALUE: 0.618

RECORD_SEQUENCE: KCCCIYEKPRA [PPP1R11_Y64]
MEAS_VALUE: 3.6

RECORD_SEQUENCE: CKLCQYFLDHL [ATRX_Y1849_Y1847C_YF]
MEAS_VALUE: 0.766

RECORD_SEQUENCE: KIKGWYEKCEP [KRT26_Y119]
MEAS_VALUE: 0.47

RECORD_SEQUENCE: APSEFYDGDHD [HDAC3_Y414_N411S]
MEAS_VALUE: 0.565

RECORD_SEQUENCE: YAREGYSALPQ [SARS2_Y52]
MEAS_VALUE: 0.373

RECORD_SEQUENCE: VRFMAYTDETF [F8_Y450]
MEAS_VALUE: 0.433

RECORD_SEQUENCE: REQREYLEQLN [CCDC88B_Y1277_D1279E]
MEAS_VALUE: 0.529

RECORD_SEQUENCE: QRDSSYFWEIE [RAF1_Y340_YF]
MEAS_VALUE: 0.712

RECORD_SEQUENCE: PRSRSYFSTSI [REPS2_Y462_S463F]
MEAS_VALUE: 0.677

Request: Endpoint output: phosphorylation enrichment of IQRSLYDCPAS [PDGFRA_Y762_R764C] . Value?
Response: 0.81

Request: What about this sequence? RAFRHYLLKQK [SCN2A_Y1919_R1918H_YF]
Response: 0.907

Request: Please give the result for TESNNYIYKTL [FAM83B_Y637] too.
Response: 1.28

Request: Cool, now WNDPDYMDSRR [GAA_Y407_L405P]
Response: 0.453

Request: Next: FTYDPYSEEEP [IL2RB_Y387_D391E]
Response: 1.69

src = the supplement of paper PMC10065799
